- assay protocol: Gelation experiments: inversion test for self-supporting hydrogels
- Format: physicochemical
- setup conditions: PBS; final concentrations 1, 2 and 4 weight percent tested
Where a SMILES comes first, the peptide text is derived from it. The star is where a group is joined. Palmitoyl = CCCCCCCCCCCCCCCC(=O)*
measured attribute: Gelation (self-supporting gel on inversion), PBS

// solved cases for Gelation (self-supporting gel on inversion), PBS follow
CCCCCCCCCCCCCCCC(=O)NC(C(=O)NCC(=O)N[C@@H](Cc1ccccc1)C(=O)NCC(=O)N[C@@H](Cc1ccccc1)C(=O)NCC(=O)N[C@@H](Cc1ccccc1)C(=O)NCC(=O)N[C@@H](CC(N)=O)C(=O)N[C@@H](CC(N)=O)C(=O)N[C@@H](CO)C(=O)O)C(=O)NCC(=O)N[C@@H](Cc1ccccc1)C(=O)NCC(=O)N[C@@H](Cc1ccccc1)C(=O)NCC(=O)N[C@@H](Cc1ccccc1)C(=O)NCC(=O)N[C@@H](CC(N)=O)C(=O)N[C@@H](CC(N)=O)C(=O)N[C@@H](CO)C(=O)O [Gly-Phe-Gly-Phe-Gly-Phe-Gly-Asn-Asn-Ser] :: Yes,
CCCCCCCCCCCCCCCC(=O)NCC(=O)N[C@@H](Cc1ccccc1)C(=O)NCC(=O)N[C@@H](Cc1ccccc1)C(=O)NCC(=O)N[C@@H](Cc1ccccc1)C(=O)NCC(=O)N[C@@H](CCC(N)=O)C(=O)N[C@@H](CCC(N)=O)C(=O)N[C@@H](CO)C(=O)O [reference compound] (Palmitoyl-GFGFGFGQQS-OH) :: No
CCCCCCCCCCCCCCCC(=O)NC(C(=O)NCC(=O)N[C@@H](Cc1ccccc1)C(=O)NCC(=O)N[C@@H](Cc1ccccc1)C(=O)NCC(=O)N[C@@H](Cc1ccccc1)C(=O)NCC(=O)N[C@@H](CC(N)=O)C(=O)NCC(=O)N[C@@H](CO)C(=O)O)C(=O)NCC(=O)N[C@@H](Cc1ccccc1)C(=O)NCC(=O)N[C@@H](Cc1ccccc1)C(=O)NCC(=O)N[C@@H](Cc1ccccc1)C(=O)NCC(=O)N[C@@H](CC(N)=O)C(=O)NCC(=O)N[C@@H](CO)C(=O)O [Gly-Phe-Gly-Phe-Gly-Phe-Gly-Asn-Gly-Ser] :: No
CCCCCCCCCCCCCCCC(=O)NC(C(=O)NCC(=O)N[C@@H](Cc1ccccc1)C(=O)NCC(=O)N[C@@H](Cc1ccccc1)C(=O)NCC(=O)N[C@@H](Cc1ccccc1)C(=O)NCC(=O)NCC(=O)N[C@@H](CC(N)=O)C(=O)N[C@@H](CO)C(=O)O)C(=O)NCC(=O)N[C@@H](Cc1ccccc1)C(=O)NCC(=O)N[C@@H](Cc1ccccc1)C(=O)NCC(=O)N[C@@H](Cc1ccccc1)C(=O)NCC(=O)NCC(=O)N[C@@H](CC(N)=O)C(=O)N[C@@H](CO)C(=O)O [Gly-Phe-Gly-Phe-Gly-Phe-Gly-Gly-Asn-Ser] :: No
CCCCCCCCCCCCCCCC(=O)NC(C(=O)NCC(=O)N[C@@H](Cc1ccccc1)C(=O)NCC(=O)N[C@@H](Cc1ccccc1)C(=O)NCC(=O)N[C@@H](Cc1ccccc1)C(=O)NCC(=O)NCC(=O)N[C@@H](CCC(N)=O)C(=O)N[C@@H](CO)C(=O)O)C(=O)NCC(=O)N[C@@H](Cc1ccccc1)C(=O)NCC(=O)N[C@@H](Cc1ccccc1)C(=O)NCC(=O)N[C@@H](Cc1ccccc1)C(=O)NCC(=O)NCC(=O)N[C@@H](CCC(N)=O)C(=O)N[C@@H](CO)C(=O)O [Gly-Phe-Gly-Phe-Gly-Phe-Gly-Gly-Gln-Ser] :: No

Input CCCCCCCCCCCCCCCC(=O)NC(C(=O)NCC(=O)N[C@@H](Cc1ccccc1)C(=O)NCC(=O)N[C@@H](Cc1ccccc1)C(=O)NCC(=O)N[C@@H](Cc1ccccc1)C(=O)NCC(=O)N[C@@H](CCC(N)=O)C(=O)NCC(=O)N[C@@H](CO)C(=O)O)C(=O)NCC(=O)N[C@@H](Cc1ccccc1)C(=O)NCC(=O)N[C@@H](Cc1ccccc1)C(=O)NCC(=O)N[C@@H](Cc1ccccc1)C(=O)NCC(=O)N[C@@H](CCC(N)=O)C(=O)NCC(=O)N[C@@H](CO)C(=O)O [Gly-Phe-Gly-Phe-Gly-Phe-Gly-Gln-Gly-Ser] , output reported Gelation (self-supporting gel on inversion), PBS.
Yes,
